Values compiled from the Human Domainome abundance scans (Beltran et al. 2025).

B1: Gamma-crystallin D, residues 90 to 170; numbered along this chain, P07320 (parent)
chain: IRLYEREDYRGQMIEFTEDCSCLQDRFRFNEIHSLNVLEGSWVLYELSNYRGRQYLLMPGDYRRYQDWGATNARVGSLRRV

- Variants of: B1
- Assay overview: abundance fitness (aPCA) (normalised: wild type 0, dead -1); higher = more abundant; growth selection in yeast, the domain comes from the species named
- Run conditions: Homo sapiens
Measurement kind: abundance fitness
Form field (numeric): enter value without unit.

Answered cases to consult:
D8Q | 0.097
S41W | -0.207
R51P | -0.951

So what does the record say about abundance fitness for `E7V` ? -0.04

// same read-out, input: `V43M` 0.079

Same for `D19A` -0.116
